Assay: NCI Yeast Anticancer Drug Screen. Data for the bub3 strain (AID 167)
Settings: S. cerevisiae bub3 mutant strain, at 3.7 µM, hits give high values
This is part of a sample that, as a whole, favours compounds with a hit. Of some 79,000 tested, about 15% had one in any assay.
Entries annotated with measured growth inhibition
Please give a number only; it is taken to be in %.

Solved cases below.
| compound | measurement |
| --- | --- |
| COC1C(O)C(C)OC(OC2C(Oc3cccc4c(O)c5c(=O)oc6ccc(C)c7c(=O)oc(c34)c5c67)OC(C)C(O)C2O)C1O (stereo unspecified) | -3 |
| CC[C@@]1(O)C(=O)OCc2c1cc1n(c2=O)Cc2cc3c(NC(=O)CN)cccc3nc2-1 | -6 |

Entry C/C(CCl)=N/NC1=NC(c2ccccc2Cl)P(=O)(NCCCNP2(=O)SC(N/N=C(/C)CCl)=NC2c2ccccc2Cl)S1 (stereo unspecified) has what growth inhibition?
-5

Entry `O=C1NC(=S)NC(=O)C1=Cc1ccc([N+](=O)[O-])o1` has what growth inhibition?
-9

Entry `CCN(CC)CCBr` has what growth inhibition?
-3
